System: 227483-062-R1-J1-PDC complex spheroids with HUVEC/MSC, viability
Experiment: Anticancer human tumor 227483-062-R1-J1-PDC patient-derived pancreatic carcinoma cell line growth inhibition [CLK]; active = viability on the fitted dose curve at most 10% of control; inactive = the rest
Details: second compound 3.16 µM; first compound 1 µM
Response enum: label 1 (active), label 0 (inactive)

The following compounds have reported results that may help.
CC(=O)O[C@H]1C(=O)[C@@]2(C)[C@H]([C@H](OC(=O)c3ccccc3)[C@]3(O)C[C@H](OC(=O)[C@H](O)[C@@H](NC(=O)c4ccccc4)c4ccccc4)C(C)=C1C3(C)C)[C@]1(OC(C)=O)CO[C@@H]1C[C@@H]2O + CN1CCN(c2cc(C(=O)Nc3cc4cc(-c5cnn(C)c5)ccc4cn3)ccn2)CC1	label 1
Nc1ccccc1NC(=O)c1ccc(CNC(=O)OCc2cccnc2)cc1 + CN1CCN(c2cc(C(=O)Nc3cc4cc(-c5cnn(C)c5)ccc4cn3)ccn2)CC1	label 1
C=CC(=O)N1CCN(c2nc(=O)n(-c3c(C)ccnc3C(C)C)c3nc(-c4c(O)cccc4F)c(F)cc23)C(C)C1 (centres undefined) + CNC(=O)c1ccc(Nc2nc(OC3CCCC3)c3c(-c4ccc5nc(C)oc5c4)c[nH]c3n2)c(OC)c1	label 0

Shifting focus to the compound that follows.
Answer briefly: the call reported for C#Cc1c(F)ccc2cc(O)cc(-c3ncc4c(N5CC6CCC(C5)N6)nc(OCC56CCCN5CC(F)C6)nc4c3F)c12 (centres undefined) + CNC(=O)c1ccc(Nc2nc(OC3CCCC3)c3c(-c4ccc5nc(C)oc5c4)c[nH]c3n2)c(OC)c1 in this assay.
label 0

====

Test system: 227483-062-R1-J1-PDC complex spheroids with HUVEC/MSC, viability
Assay: Anticancer human tumor 227483-062-R1-J1-PDC cell line growth inhibition [CLK]; active = viability on the fitted dose curve at most 10% of control; inactive = the rest;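 also: spheroids exposed to compounds for seven days before readout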
Details: second compound 10 µM; first compound 0.1 µM
Response enum: true (1) for active, false (0) for inactive

CCc1c2c(nc3ccc(O)cc13)-c1cc3c(c(=O)n1C2)COC(=O)[C@]3(O)CC + CNC(=O)c1ccc(Nc2nc(OC3CCCC3)c3c(-c4ccc5nc(C)oc5c4)c[nH]c3n2)c(OC)c1	false (0)
CCN1CCN(Cc2ccc(Nc3ncc(F)c(-c4cc(F)c5nc(C)n(C(C)C)c5c4)n3)nc2)CC1 + CNC(=O)c1ccc(Nc2nc(OC3CCCC3)c3c(-c4ccc5nc(C)oc5c4)c[nH]c3n2)c(OC)c1	false (0)
C=C(F)C(=O)N1CCN(c2nc(OCC3CCCN3C)nc3c2CCN(c2cccc4cccc(Cl)c24)C3)CC1CC#N (stereo not given) + CNC(=O)c1ccc(Nc2nc(OC3CCCC3)c3c(-c4ccc5nc(C)oc5c4)c[nH]c3n2)c(OC)c1	false (0)
CC(Nc1ccc2c(c1)OCCn1cc(N3C(=O)OCC3C(F)F)nc1-2)C(N)=O (stereo not given) + CNC(=O)c1ccc(Nc2nc(OC3CCCC3)c3c(-c4ccc5nc(C)oc5c4)c[nH]c3n2)c(OC)c1	false (0)

Answer briefly: the call reported for CC(Nc1ccc2c(c1)OCCn1cc(N3C(=O)OCC3C(F)F)nc1-2)C(N)=O (stereo not given) + CN1CCN(c2cc(C(=O)Nc3cc4cc(-c5cnn(C)c5)ccc4cn3)ccn2)CC1 in this assay.
true (1)

====

Test system: 227483-062-R1-J1-PDC complex spheroids with HUVEC/MSC, viability
Assay: Anticancer human tumor 227483-062-R1-J1-PDC cell line growth inhibition [CLK];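 also: spheroids exposed to compounds for seven days before readout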;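 as to viability, T/C: percent of DMSO vehicle control luminescence as 100% viability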
Details: second compound 10 µM; first compound 0.1 µM; stronger effect = lower value
The label is true for viability, T/C below 3% and false for viability, T/C equal to or exceeding 3%.

O=C(c1cc(Cc2n[nH]c(=O)c3ccccc23)ccc1F)N1CCN(C(=O)C2CC2)CC1 + CN1CCN(c2cc(C(=O)Nc3cc4cc(-c5cnn(C)c5)ccc4cn3)ccn2)CC1	true
C=CC(=O)N1CCN(c2nc(=O)n(-c3c(C)ccnc3C(C)C)c3nc(-c4c(O)cccc4F)c(F)cc23)C(C)C1 (stereo not given) + CNC(=O)c1ccc(Nc2nc(OC3CCCC3)c3c(-c4ccc5nc(C)oc5c4)c[nH]c3n2)c(OC)c1	false

hey, is viability, T/C for CC1COCCN1c1cc(C2(S(C)(=N)=O)CC2)nc(-c2ccnc3[nH]ccc23)n1 (stereo not given) + CN1CCN(c2cc(C(=O)Nc3cc4cc(-c5cnn(C)c5)ccc4cn3)ccn2)CC1 lower than 3% or not?
true

hey, is viability, T/C for Nc1ccccc1NC(=O)c1ccc(CNC(=O)OCc2cccnc2)cc1 + CN1CCN(c2cc(C(=O)Nc3cc4cc(-c5cnn(C)c5)ccc4cn3)ccn2)CC1 lower than 3% or not?
true

hey, is viability, T/C for CCCS(=O)(=O)Nc1ccc(F)c(C(=O)c2c[nH]c3ncc(-c4ccc(Cl)cc4)cc23)c1F + CN1CCN(c2cc(C(=O)Nc3cc4cc(-c5cnn(C)c5)ccc4cn3)ccn2)CC1 lower than 3% or not?
true

====

Test system: 227483-062-R1-J1-PDC complex spheroids with HUVEC/MSC, viability
Assay: Anticancer human tumor 227483-062-R1-J1-PDC cell line growth inhibition [CLK]; active means viability on the fitted dose curve at most 10% of control; inactive means the rest;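 also: spheroids exposed to compounds for seven days before readout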
Conditions: second compound 0.316 µM; first compound 10 µM
Response enum: active, inactive

CCCS(=O)(=O)Nc1ccc(F)c(C(=O)c2c[nH]c3ncc(-c4ccc(Cl)cc4)cc23)c1F + CNC(=O)c1ccc(Nc2nc(OC3CCCC3)c3c(-c4ccc5nc(C)oc5c4)c[nH]c3n2)c(OC)c1	inactive
CC1COCCN1c1cc(C2(S(C)(=N)=O)CC2)nc(-c2ccnc3[nH]ccc23)n1 (stereo not drawn) + CN1CCN(c2cc(C(=O)Nc3cc4cc(-c5cnn(C)c5)ccc4cn3)ccn2)CC1	active

Answer briefly: the call reported for Nc1ccn(C2OC(CO)C(O)C2(F)F)c(=O)n1 (stereo not drawn) + CNC(=O)c1ccc(Nc2nc(OC3CCCC3)c3c(-c4ccc5nc(C)oc5c4)c[nH]c3n2)c(OC)c1 in this assay.
inactive

====

Tested on: 227483-062-R1-J1-PDC complex spheroids with HUVEC/MSC, viability
Assay: Anticancer human tumor 227483-062-R1-J1-PDC cell line growth inhibition [CLK]; active means viability on the fitted dose curve at most 10% of control; inactive means the rest;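 also: spheroids exposed to compounds for seven days before readout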
Settings: second compound 1 µM; first compound 0.0316 µM
Excerpt: A high-throughput screen of multi-cell type tumor spheroids was designed to identify active combinations of […] and targeted small molecules. Complex spheroids include a stromal component modeled by human endothelial cells (HUVEC) and fibroblasts modeled by human mesenchymal stem cells (MSCs). […] Compounds. […] If the clinical Cmax for an agent had not been determined, the highest concentration tested was 10 microM. […]
Response enum: label 1 = active, label 0 = inactive

CC1(C)CCC(CN2CCN(c3ccc(C(=O)NS(=O)(=O)c4ccc(NCC5CCOCC5)c([N+](=O)[O-])c4)c(Oc4cnc5[nH]ccc5c4)c3)CC2)=C(c2ccc(Cl)cc2)C1 + CN1CCN(c2cc(C(=O)Nc3cc4cc(-c5cnn(C)c5)ccc4cn3)ccn2)CC1	label 1

Shifting focus to the compound that follows.
Answer briefly: the call reported for C=CC(=O)N1CCN(c2nc(=O)n(-c3c(C)ccnc3C(C)C)c3nc(-c4c(O)cccc4F)c(F)cc23)C(C)C1 (configuration not stated) + CNC(=O)c1ccc(Nc2nc(OC3CCCC3)c3c(-c4ccc5nc(C)oc5c4)c[nH]c3n2)c(OC)c1 in this assay.
label 0

====

System: 227483-062-R1-J1-PDC complex spheroids with HUVEC/MSC, viability
Assay: Anticancer human tumor 227483-062-R1-J1-PDC cell line growth inhibition [CLK];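 also: spheroids exposed to compounds for seven days before readout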
Conditions: curve of compound
pIC50: −log10 of the molar value.
Provide the reported pIC50 of each item.

Below are worked cases with known answers.
CCCS(=O)(=O)Nc1ccc(F)c(C(=O)c2c[nH]c3ncc(-c4ccc(Cl)cc4)cc23)c1F	< 5.00
C=CC(=O)N1CCN(c2nc(=O)n(-c3c(C)ccnc3C(C)C)c3nc(-c4c(O)cccc4F)c(F)cc23)C(C)C1 (configuration not stated)	< 5.00
Nc1ccccc1NC(=O)c1ccc(CNC(=O)OCc2cccnc2)cc1	< 5.00
Cn1ncnc1[C@H]1c2n[nH]c(=O)c3cc(F)cc(c23)N[C@@H]1c1ccc(F)cc1	< 7.00
CCN1CCN(Cc2ccc(Nc3ncc(F)c(-c4cc(F)c5nc(C)n(C(C)C)c5c4)n3)nc2)CC1	< 6.00

List the reported pIC50 of each compound below.
1. C#Cc1c(F)ccc2cc(O)cc(-c3ncc4c(N5CC6CCC(C5)N6)nc(OCC56CCCN5CC(F)C6)nc4c3F)c12 (configuration not stated)
2. C=CC(=O)Nc1cc(Nc2nccc(-c3cn(C)c4ccccc34)n2)c(OC)cc1N(C)CCN(C)C

["< 5.00", "< 6.52"]

====

System: 227483-062-R1-J1-PDC complex spheroids with HUVEC/MSC, viability
Experiment: Anticancer human tumor 227483-062-R1-J1-PDC cell line growth inhibition [CLK];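 also: spheroids exposed to compounds for seven days before readout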;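 as to viability, T/C: percent of DMSO vehicle control luminescence as 100% viability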
Conditions: second compound 0.0316 µM; first compound 0.1 µM; stronger effect = lower value
The label is 1 (yes) for viability, T/C below 90% and 0 (no) for viability, T/C equal to or exceeding 90%.

COc1c(OCCCN2CCOCC2)ccc2c3n(c(=NC(=O)c4cnc(N)nc4)nc12)CCN3 + CN1CCN(c2cc(C(=O)Nc3cc4cc(-c5cnn(C)c5)ccc4cn3)ccn2)CC1	1 (yes)
CCN1CCN(Cc2ccc(Nc3ncc(F)c(-c4cc(F)c5nc(C)n(C(C)C)c5c4)n3)nc2)CC1 + CNC(=O)c1ccc(Nc2nc(OC3CCCC3)c3c(-c4ccc5nc(C)oc5c4)c[nH]c3n2)c(OC)c1	1 (yes)
C=CC(=O)N1CCN(c2nc(=O)n(-c3c(C)ccnc3C(C)C)c3nc(-c4c(O)cccc4F)c(F)cc23)C(C)C1 (configuration not stated) + CN1CCN(c2cc(C(=O)Nc3cc4cc(-c5cnn(C)c5)ccc4cn3)ccn2)CC1	0 (no)
O=C(c1cc(Cc2n[nH]c(=O)c3ccccc23)ccc1F)N1CCN(C(=O)C2CC2)CC1 + CN1CCN(c2cc(C(=O)Nc3cc4cc(-c5cnn(C)c5)ccc4cn3)ccn2)CC1	0 (no)
O=C(c1cc(Cc2n[nH]c(=O)c3ccccc23)ccc1F)N1CCN(C(=O)C2CC2)CC1 + CNC(=O)c1ccc(Nc2nc(OC3CCCC3)c3c(-c4ccc5nc(C)oc5c4)c[nH]c3n2)c(OC)c1	1 (yes)
Nc1ccn(C2OC(CO)C(O)C2(F)F)c(=O)n1 (configuration not stated) + CNC(=O)c1ccc(Nc2nc(OC3CCCC3)c3c(-c4ccc5nc(C)oc5c4)c[nH]c3n2)c(OC)c1	1 (yes)
CC(=O)O[C@H]1C(=O)[C@@]2(C)[C@H]([C@H](OC(=O)c3ccccc3)[C@]3(O)C[C@H](OC(=O)[C@H](O)[C@@H](NC(=O)c4ccccc4)c4ccccc4)C(C)=C1C3(C)C)[C@]1(OC(C)=O)CO[C@@H]1C[C@@H]2O + CN1CCN(c2cc(C(=O)Nc3cc4cc(-c5cnn(C)c5)ccc4cn3)ccn2)CC1	1 (yes)
COC1C=CCC(C)C(C)S(=O)(=O)NC(=O)c2ccc3c(c2)N(CC2CCC21)CC1(CCCc2cc(Cl)ccc21)CO3 (configuration not stated) + CNC(=O)c1ccc(Nc2nc(OC3CCCC3)c3c(-c4ccc5nc(C)oc5c4)c[nH]c3n2)c(OC)c1	0 (no)

hey, is viability, T/C for C=C(F)C(=O)N1CCN(c2nc(OCC3CCCN3C)nc3c2CCN(c2cccc4cccc(Cl)c24)C3)CC1CC#N (configuration not stated) + CN1CCN(c2cc(C(=O)Nc3cc4cc(-c5cnn(C)c5)ccc4cn3)ccn2)CC1 lower than 90% or not?
0 (no)

hey, is viability, T/C for Nc1ccccc1NC(=O)c1ccc(CNC(=O)OCc2cccnc2)cc1 + CN1CCN(c2cc(C(=O)Nc3cc4cc(-c5cnn(C)c5)ccc4cn3)ccn2)CC1 lower than 90% or not?
0 (no)
